Values were extracted from patent US20230184767.

- Test system: infectious human adenovirus 2 (HAdV-2, whole virus) (Human adenovirus 2)
- assay.explanation: ELONA
- test.conditions: SELEX buffer 20 mM Tris, 100 mM NaCl, 2.5 mM MgCl2, pH 7.2, room temperature
pKd: −log10 of the molar value.
readout: pKd

- sequence.content: "GGCTGCAGCTGAAGCACTGGTTTTGAGTCAAACCCAGACGATGGA [Apt-HAdV]"
  numeric.readout: 9.05
